B1: GFOD1 (parent)
chain: EEAEELAKEMSVPFYTSRIDEVLL

Variants of: B1
Experiment Summary: protein stability index of a GFP-peptide fusion (GPS, HEK-293T) (PSI 1-6); higher = more stable;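 also: lentivirally expressed fusions sorted by FACS into six bins by GFP to DsRed ratio, PSI derived from sequencing read proportions per bin multiplied by bin number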
Particulars: c terminus: a fixed tail appended
In this section we review reported protein stability index values for a set of variants.
Number only, please.

INSERT INTO measurements (mutation_list, measured_result) VALUES
  ('F14V', 3.86);

Return reported protein stability index; argument: `F14K`
4.2

Recorded protein stability index of `K8E` , please.
4.17

May I ask what protein stability index has been recorded for `P13S` ?
3.47

Entry `L6Y` : reported protein stability index = ?
3.95

Form field: reported protein stability index of `K8H`
3.66

Recorded protein stability index of `P13V` , please.
2.74

Quick one: protein stability index of `A7M` ?
3.14

Can you look up the measured protein stability index of `S17C` for me?
2.52

So what does the record say about protein stability index for `Y15P` ?
5

I'd like to know its protein stability index. The variant in question is `E5G`
4.04

I would be grateful if you could share the reported protein stability index for `L6D` .
4.99

Which measured protein stability index value corresponds to `E9H` ?
3.2

Any idea what its protein stability index is? The variant is `F14N`
4.68

Any idea what its protein stability index is? The variant is `T16S`
3.27

Returns the measured protein stability index for the input variant. Input: `F14I`
4.05

# input variant: `F14G` ; wanted: its protein stability index
3.4

I have this variant here, `L6H` , and I need its recorded protein stability index.
4.48

Quick check: protein stability index of `E5P` ?
3.96

Requested read-out: protein stability index. Entry: `M10L`
2.62

I would be grateful if you could share the reported protein stability index for `E21P` .
3.92

What value of protein stability index has been recorded for this entry: `E4A`
3.45
